Source listed as paper PMC8808565.

biological target: SARS-CoV-2 (2019-nCoV) Spike RBD-His Recombinant Protein, Biotinylated (SARS-CoV-2, UniProt P0DTC2, biotin (biotinylated; site not stated)); experiment: SPR
Value Kind: Kd (nM)
Please state the figure in nM; there is no need to write the unit.

Q: Respond only with Kd recorded for GIGDPVTCLKSGAICHPVFCPRRYKQIGTCGLPGTKCCKKP [Human beta defensin 2 (hBD-2), recombinant]
Result: 1800
